Source listed as patent US20080194574A1.

# Lookup of reported IC50 keyed by entry
- targetOrSystem: viral kinase pUL-97 (Human cytomegalovirus, UniProt P16788)
- Construct: The pUL-97 gene was cloned into a baculovirus vector; GST (glutathione S-transferase) (N); made in house; host or cells: Sf9 insect cells, baculovirus
- Sequence (P16788 whole entry): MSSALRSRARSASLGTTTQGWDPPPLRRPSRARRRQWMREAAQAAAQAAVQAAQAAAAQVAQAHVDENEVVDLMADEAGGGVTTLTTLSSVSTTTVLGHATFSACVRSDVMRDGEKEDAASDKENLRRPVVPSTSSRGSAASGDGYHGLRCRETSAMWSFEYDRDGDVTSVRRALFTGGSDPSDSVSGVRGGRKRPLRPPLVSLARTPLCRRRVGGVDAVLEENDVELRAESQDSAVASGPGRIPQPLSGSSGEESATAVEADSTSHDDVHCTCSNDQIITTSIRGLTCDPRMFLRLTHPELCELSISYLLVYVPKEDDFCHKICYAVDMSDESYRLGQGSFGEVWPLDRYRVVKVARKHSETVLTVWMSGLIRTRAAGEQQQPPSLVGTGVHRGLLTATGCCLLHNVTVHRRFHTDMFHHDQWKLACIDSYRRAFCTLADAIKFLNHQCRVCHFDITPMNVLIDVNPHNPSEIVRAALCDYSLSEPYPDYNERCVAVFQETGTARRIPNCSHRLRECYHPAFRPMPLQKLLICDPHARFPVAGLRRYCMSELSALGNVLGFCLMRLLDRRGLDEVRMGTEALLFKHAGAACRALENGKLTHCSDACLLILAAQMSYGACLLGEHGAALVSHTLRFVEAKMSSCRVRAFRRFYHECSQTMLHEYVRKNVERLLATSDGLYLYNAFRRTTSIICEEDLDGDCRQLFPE
- protocol: UL97 kinase assay on Immobilon plate
- Type: biochemical
- details: inhibition of UL 97 kinase activity; class by IC50 / % inhibition at 10 or 100 μM; read-out: Activity Class [A, B, C]

[
  {
    "chemicalString": "NC(=O)c1ccc(-c2cncc(N3CCN(c4ccncc4)CC3)n2)cc1",
    "IC50": "< 1 µM"
  },
  {
    "chemicalString": "c1ccc(N2CCN(c3cncc(-c4ccoc4)n3)CC2)cc1",
    "IC50": "1 to 10 µM"
  },
  {
    "chemicalString": "c1cncc(-c2cncc(N3CCN(c4ccncc4)CC3)n2)c1",
    "IC50": "10 to 100 µM"
  },
  {
    "chemicalString": "Fc1ccc(N2CCN(c3cncc(-c4cccc5ccccc45)n3)CC2)c(F)c1",
    "IC50": "10 to 100 µM"
  },
  {
    "chemicalString": "COc1cccc(-c2cncc(N3CCN(c4cccc(Cl)c4)CC3)n2)c1OC",
    "IC50": "10 to 100 µM"
  },
  {
    "chemicalString": "Fc1ccc(-c2cncc(N3CCN(c4ccc(F)cc4)CC3)n2)cc1",
    "IC50": "10 to 100 µM"
  },
  {
    "chemicalString": "Clc1cccc(N2CCN(c3cncc(-c4ccc5ccccc5c4)n3)CC2)c1",
    "IC50": "10 to 100 µM"
  },
  {
    "chemicalString": "NC(=O)c1ccc(-c2cncc(N3CCN(c4ccccc4)CC3)n2)cc1",
    "IC50": "< 1 µM"
  },
  {
    "chemicalString": "FC(F)(F)c1cc(-c2cncc(N3CCN(c4ccccc4)CC3)n2)cc(C(F)(F)F)c1",
    "IC50": "10 to 100 µM"
  },
  {
    "chemicalString": "COc1ccccc1N1CCN(c2cncc(-c3ccoc3)n2)CC1",
    "IC50": "1 to 10 µM"
  },
  {
    "chemicalString": "c1coc(CNc2cncc(-c3cc4ccccc4o3)n2)c1",
    "IC50": "10 to 100 µM"
  },
  {
    "chemicalString": "COc1ccccc1N1CCN(c2cncc(-c3ccsc3)n2)CC1",
    "IC50": "10 to 100 µM"
  },
  {
    "chemicalString": "c1ccc2sc(-c3cncc(N4CCN(c5ccncc5)CC4)n3)cc2c1",
    "IC50": "< 1 µM"
  },
  {
    "chemicalString": "Clc1cccc(N2CCN(c3cncc(-c4ccccc4Oc4ccccc4)n3)CC2)c1",
    "IC50": "10 to 100 µM"
  },
  {
    "chemicalString": "NC(=O)c1ccc(-c2cnc(N)c(N3CCN(c4ccncc4)CC3)n2)cc1",
    "IC50": "1 to 10 µM"
  },
  {
    "chemicalString": "Fc1ccc(-c2cncc(N3CCN(c4cccc(C(F)(F)F)c4)CC3)n2)cc1Cl",
    "IC50": "10 to 100 µM"
  },
  {
    "chemicalString": "Clc1ccc(-c2cncc(N3CCN(c4ccccn4)CC3)n2)cc1",
    "IC50": "10 to 100 µM"
  },
  {
    "chemicalString": "Oc1ccc(-c2cncc(Nc3cccc(C(F)(F)F)c3)n2)cc1",
    "IC50": "< 1 µM"
  }
]
